Reference for the values: patent US20250099448A1

subject of test: MAGL protein (Homo sapiens, UniProt Q99685)
Sequence (Q99685 whole entry, species assumed): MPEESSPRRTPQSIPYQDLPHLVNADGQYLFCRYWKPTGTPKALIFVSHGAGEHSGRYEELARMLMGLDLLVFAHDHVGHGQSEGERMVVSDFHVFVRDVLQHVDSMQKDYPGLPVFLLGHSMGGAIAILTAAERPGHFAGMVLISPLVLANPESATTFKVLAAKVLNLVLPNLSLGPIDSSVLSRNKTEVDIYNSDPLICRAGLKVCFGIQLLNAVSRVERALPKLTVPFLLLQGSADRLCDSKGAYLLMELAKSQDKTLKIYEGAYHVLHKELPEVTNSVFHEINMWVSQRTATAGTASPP
Would you mind sorting the entries by IC50 according to these classes? bottom (below 2 nM), middle (2 nM to below 7 nM), top (7 nM or more)

Which class holds Cn1ncc(CC2CC3(C2)CN(C(=O)N2CC4(CC(c5nc(C6COC6)n[nH]5)C4)C2)C3)c1C(F)(F)F [compound 774] ?
top

Would you kindly repeat that for O=C(N1CC2(CC(Cc3ccc(C(F)(F)F)cc3F)C2)C1)N1CC2(CC(c3nc(C4COC4)n[nH]3)C2)C1 [compound 768] ?
bottom

Would you kindly repeat that for O=C(N1CC2(CC(Cc3n[nH]cc3C(F)(F)F)C2)C1)N1CC2(CC(c3nc(C4CC4)n[nH]3)C2)C1 [compound 747] ?
bottom

Would you kindly repeat that for N#CC1(c2ccc(C3CN(C(=O)N4CC5(CC(c6nnc(C7CC7)[nH]6)C5)C4)C3)cc2)CC1 [compound 376] ?
middle

Would you kindly repeat that for Cc1c(C(F)(F)F)n[nH]c1CN1CC2(C1)CN(C(=O)N1CC3(CC(c4nnc(C5CC5)[nH]4)C3)C1)C2 [compound 874] ?
middle

Would you kindly repeat that for N#Cc1ccc(CC2CC3(C2)CN(C(=O)N2CC4(CC(c5nc(C6CC6)n[nH]5)C4)C2)C3)cc1C(F)(F)F [compound 590] ?
bottom

Would you kindly repeat that for CS(=O)(=O)c1cc(C(F)(F)F)ccc1COC1CCN(C(=O)N2CC3(CC(c4nc(C5CC5)n[nH]4)C3)C2)CC1 [Example 907] ?
top

Would you kindly repeat that for O=C(N1CC2(CC(Cc3cccc(S(=O)(=O)C(F)(F)F)c3)C2)C1)N1CC2(CC(c3nc(C4(F)CC4)n[nH]3)C2)C1 [compound 627] ?
bottom

Would you kindly repeat that for Cn1nc(CN2CC3(C2)CN(C(=O)N2CC4(CC(c5nc(C6CC6)n[nH]5)C4)C2)C3)cc1C(F)(F)F [compound 681] ?
top

Would you kindly repeat that for Cn1cc(OC2CC3(C2)CN(C(=O)N2CC4(CC(c5nc(C6CC6)n[nH]5)C4)C2)C3)c(C(F)(F)F)n1 [compound 425] ?
middle

Would you kindly repeat that for O=C(N1CC2(CC(c3nc(C4CC4)n[nH]3)C2)C1)N1CC2(CN(Cc3ccn(C(F)(F)F)n3)C2)C1 [compound 601] ?
top

Would you kindly repeat that for O=C(N1CC2(CCN(Cc3nc(C(F)(F)F)cs3)CC2)C1)N1CC2(CC(c3nc(C4CC4)n[nH]3)C2)C1 [compound 732] ?
middle

Would you kindly repeat that for O=C(N1CC2(CCC(Oc3ccc(C(F)(F)F)nn3)CC2)C1)N1CC2(CC(c3nnc(C4CC4)[nH]3)C2)C1 [compound 51] ?
bottom

Would you kindly repeat that for O=C(N1CC2(CC(CNC3(C(F)(F)F)CC3)C2)C1)N1CC2(CC(c3ncn[nH]3)C2)C1 [compound 983] ?
top

----------
Consider the following IC50 values measured on UniProt:Q99685.
# value in nM; strip the unit string

Checklist item: IC50 tested on UniProt:Q99685, entry O=C(N1CC(c2ccc(-n3ccc(C(F)(F)F)n3)cc2)C1)N1CC2(CC(c3nnc(C4CC4)[nH]3)C2)C1 , value?
0.67

Would you kindly repeat that for CS(=O)(=O)c1cc(C2CN(C(=O)N3CC4(CC(c5nnc(C6CC6)[nH]5)C4)C3)C2)ccc1C1CCC1 ?
3.16

Would you kindly repeat that for O=C(N1CC2(CC(Cc3ccc4[nH]ncc4n3)C2)C1)N1CC2(CC(c3nc(C4(O)CC4)n[nH]3)C2)C1 ?
20.1

Would you kindly repeat that for Cn1nc(CC2CC3(C2)CN(C(=O)N2CC4(CC(c5nc(C6CC(F)(F)C6)n[nH]5)C4)C2)C3)cc1C(F)(F)F ?
20.8
